system: COLO 205 colon; assay: NCI tumour cell line growth inhibition, 48 h
METRIC NAME: TGI

Answered examples (3):
COMPOUND: CCOC(=O)c1c(C)nc2c(c1N)/C(=C/c1ccc(OC)cc1)C(=O)N2Cc1ccc(F)cc1
MEASUREMENT TARGET: COLO 205 colon
TGI: 0.333 µM
//
COMPOUND: O=C1OC(c2ccco2)=N/C1=C\c1cccc([N+](=O)[O-])c1
MEASUREMENT TARGET: COLO 205 colon
TGI: > 100 µM
//
COMPOUND: Nc1ncn(C2CC(O)C(CO)O2)c(=O)n1 (centres undefined)
MEASUREMENT TARGET: COLO 205 colon
TGI: > 298 µM

Please turn your attention to the following entry.
What value of measured TGI is listed for O=c1[nH]nc(Cc2ccccc2)[nH]1 ?
> 100 µM

* * *

system: MALME-3M melanoma; test: NCI tumour cell line growth inhibition, 48 h
METRIC NAME: TGI (µM)
Your answer is read as µM, so omit the unit and give the number.

COMPOUND: C=CCc1cc(-c2cc(CC=C)c(O)c(CNCCCl)c2)cc(CNCCCl)c1O
UNIT ANNOTATION: µM
TGI: 39.5

COMPOUND: Cc1ccc(NC(=O)NCCCOc2ccc(N3C(N)=NC(N)=NC3(C)C)cc2Cl)cc1S(=O)(=O)F
UNIT ANNOTATION: µM
TGI: 81

What value of measured TGI is listed for N#Cc1cccc(NC(=O)c2cc(-c3ccc(F)cc3F)ccc2O)c1 ?
5.48

What value of measured TGI is listed for N#CCC(=O)NC1C2CC3CC(C2)CC1C3 (configuration not stated) ?
42.6

What value of measured TGI is listed for Cc1ccc(NC(=O)c2sc3nc(C)c(C(O)c4ccccc4)cc3c2N)cc1 (configuration not stated) ?
53.7

What value of measured TGI is listed for c1cc[c]([Pb]([c]2ccccc2)[c]2ccccc2)cc1 ?
36.6

What value of measured TGI is listed for CCCCCCCCCCN(CCCCCCCCCC)C(=O)COc1c2cc(C(C)(C)C)cc1Cc1cc(C(C)(C)C)cc(c1OCC(=O)N(CCCCCCCCCC)CCCCCCCCCC)Cc1cc(C(C)(C)C)cc(c1OCC(=O)N(CCCCCCCCCC)CCCCCCCCCC)Cc1cc(C(C)(C)C)cc(c1OCC(=O)N(CCCCCCCCCC)CCCCCCCCCC)C2 ?
28.7

What value of measured TGI is listed for Cc1nc2ccccc2n1C(=O)c1c(F)c(F)c(F)c(F)c1F ?
57.5

* * *

test system: HCT-116 colon; assay: NCI tumour cell line growth inhibition, 48 h
METRIC NAME: TGI

COMPOUND: C=C(C)C1CCC2(C(=O)O)CCC3(C)C(CCC4C5(C)CCC(OC(=O)NCc6ccccc6)C(C)(C)C5CCC43C)C12 (stereo not given)
TGI: 19.3 µM
--
COMPOUND: O=C(O)[C@@H]1CCCCN1Cc1cc2cc3c(cc2c2cc(OCc4ccccc4)ccc12)OCO3
TGI: 31.1 µM
--
COMPOUND: CCOC(=O)CCn1[nH]c(=O)c(Cl)c(Cl)c1=O
TGI: > 100 µM
--
COMPOUND: N#CCc1ccc(C(C#N)/C(CCCC(=O)Nc2cccc([N+](=O)[O-])c2)=N/NC(N)=S)cc1 (stereo not given)
TGI: > 100 µM

TGI of Cc1nc(-c2ccccc2)c(-c2ccccc2)s1 on HCT-116 colon?
68.8 µM
